Measured percent inhibition of viability of individual entries
Tested on: KHYG-1 (IL-2 2.5 ng/mL)
measurement-protocol: percent inhibition of viability; higher = more inhibition
experimental-setup: 72 h; 1000 nM
Quick reminder: number only, in %, skip the unit.

Example compounds with recorded percent inhibition of viability:
{"compound": "OC[C@H]1O[C@@H](n2cnc3c2N=CNC[C@H]3O)C[C@@H]1O [Pentostatin] (max concentration tested 10000 nM)", "assayed-target": "KHYG-1 (IL-2 2.5 ng/mL)", "percent inhibition of viability, %": 5.07}
{"compound": "CNC(=O)c1ccc(N2C(=S)N(c3ccc(C#N)c(C(F)(F)F)c3)C(=O)C2(C)C)cc1F [Enzalutamide] (max concentration tested 10000 nM)", "assayed-target": "KHYG-1 (IL-2 2.5 ng/mL)", "percent inhibition of viability, %": -6.97}

Value of percent inhibition of viability reported for the compound CN1CCN(c2cc(C(=O)Nc3ccc4c(c3)-c3c(c(C(N)=O)nn3-c3ccc(F)cc3)CC4)c(Cl)cn2)CC1 [PHA 408] (max concentration tested 10000 nM) is -0.31

###

Tested on: normal NK cells expanded with K562-aAPC
measurement-protocol: percent inhibition of viability; higher = more inhibition
experimental-setup: 72 h; IL-2 2.5 ng/mL; 1 nM
# percent inhibition of viability values compiled below
Just so you know, I need the unit written after the number.

Solved entries (count: 5):
{"compound": "CN(C)C/C=C/C(=O)Nc1cc2c(Nc3ccc(F)c(Cl)c3)ncnc2cc1O[C@H]1CCOC1 [Afatinib] (max concentration tested 1000 nM)", "assayed-target": "normal NK cells expanded with K562-aAPC", "percent inhibition of viability": "-0.9%"}
{"compound": "Oc1ncc(N(CCCl)CCCl)c(O)n1 [Uramustine] (max concentration tested 10000 nM)", "assayed-target": "normal NK cells expanded with K562-aAPC", "percent inhibition of viability": "-9.68%"}
{"compound": "CCn1c(-c2nonc2N)nc2c(C#CC(C)(C)O)ncc(OC[C@H]3CCCNC3)c21 (max concentration tested 10000 nM)", "assayed-target": "normal NK cells expanded with K562-aAPC", "percent inhibition of viability": "-1.22%"}
{"compound": "CCc1c2c(nc3ccc(OC(=O)N4CCC(N5CCCCC5)CC4)cc13)-c1cc3c(c(=O)n1C2)COC(=O)[C@]3(O)CC [Irinotecan] (max concentration tested 10000 nM)", "assayed-target": "normal NK cells expanded with K562-aAPC", "percent inhibition of viability": "-0.14%"}
{"compound": "CNC(=O)c1cccc2cc(Oc3ccnc4cc(OCC5(N)CC5)c(OC)cc34)ccc12 [Lucitanib] (max concentration tested 10000 nM)", "assayed-target": "normal NK cells expanded with K562-aAPC", "percent inhibition of viability": "-5.59%"}

// sample O=C(O)c1ccc(Nc2ncc3c(n2)-c2ccc(Cl)cc2C(c2c(F)cccc2F)=NC3)cc1 [MLN-8054] (max concentration tested 10000 nM) , its percent inhibition of viability was 0.34%

###

percent inhibition of viability: recorded values
Test system: normal primary NK cells, pool 3 (3 donors) (IL-2 2.5 ng/mL)
measurement-protocol: percent inhibition of viability; higher = more inhibition
experimental-setup: 72 h; 100 nM
Write down the numeric answer in % and omit the unit.

# example entries with known answers
{"molecule": "CNC(=O)c1cccc2cc(Oc3ccnc4cc(OCC5(N)CC5)c(OC)cc34)ccc12 [Lucitanib] (max concentration tested 10000 nM)", "percent inhibition of viability [%]": 3.76}
{"molecule": "COc1cc2c(Nc3ccc(Cl)c(Cl)c3F)ncnc2cc1OC[C@@H]1C[C@@H]2CN(C)C[C@@H]2C1 [XL-647] (max concentration tested 1000 nM)", "percent inhibition of viability [%]": -4.74}

Record COCC1(CO)C(=O)C2CCN1CC2 (stereo not drawn) [APR-246] (max concentration tested 10000 nM) . Reported percent inhibition of viability: 12.5

###

Test system: normal primary NK cells, pool 2 (3 donors) (IL-2 2.5 ng/mL)
measurement-protocol: percent inhibition of viability; higher = more inhibition
experimental-setup: 72 h; 100 nM
value-type: percent inhibition of viability

Examples with answers:
{"molecule": "CCn1c(-c2nonc2N)nc2cnc(Oc3cccc(NC(=O)c4ccc(OCCN5CCOCC5)cc4)c3)cc21 (max concentration tested 10000 nM)", "assayed-target": "normal primary NK cells, pool 2 (3 donors) (IL-2 2.5 ng/mL)", "percent inhibition of viability": "9.01%"}
{"molecule": "O=c1[nH]c(=O)n([C@H]2C[C@H](O)[C@@H](CO)O2)cc1F [Floxuridine] (max concentration tested 10000 nM)", "assayed-target": "normal primary NK cells, pool 2 (3 donors) (IL-2 2.5 ng/mL)", "percent inhibition of viability": "-7.65%"}
{"molecule": "C=CC[C@@H]1/C=C(\\C)C[C@H](C)C[C@H](OC)[C@H]2O[C@@](O)(C(=O)C(=O)N3CCCC[C@H]3C(=O)O[C@H](/C(C)=C/[C@@H]3CC[C@@H](O)[C@H](OC)C3)[C@H](C)[C@@H](O)CC1=O)[C@H](C)C[C@@H]2OC [Tacrolimus] (max concentration tested 10000 nM)", "assayed-target": "normal primary NK cells, pool 2 (3 donors) (IL-2 2.5 ng/mL)", "percent inhibition of viability": "3.62%"}
{"molecule": "COc1cc2c(Nc3ccc(Cl)c(Cl)c3F)ncnc2cc1OC[C@@H]1C[C@@H]2CN(C)C[C@@H]2C1 [XL-647] (max concentration tested 1000 nM)", "assayed-target": "normal primary NK cells, pool 2 (3 donors) (IL-2 2.5 ng/mL)", "percent inhibition of viability": "-3.8%"}
{"molecule": "C[C@@H]1C[C@H]2O[C@@H]2/C=C\\C=C\\C(=O)Cc2c(Cl)c(O)cc(O)c2C(=O)O1 [Radicicol] (max concentration tested 10000 nM)", "assayed-target": "normal primary NK cells, pool 2 (3 donors) (IL-2 2.5 ng/mL)", "percent inhibition of viability": "60.7%"}

The measured percent inhibition of viability associated with O=C(Nc1ccc2[nH]nc(-c3ccncc3)c2c1)[C@@H]1CCN(CC(=O)N2CCN(c3ccc(-c4ncccn4)cc3)CC2)C1 (max concentration tested 10000 nM) reads 0.32%

Lab book: percent inhibition of viability of O=C(/C=C/c1cccnc1)NCCCCC1CCN(C(=O)c2ccccc2)CC1 [Daporinad] (max concentration tested 1000 nM) noted as 96.4%

Per the record, CCOc1cc2ncc(C#N)c(Nc3ccc(OCc4ccccn4)c(Cl)c3)c2cc1NC(=O)/C=C/CN(C)C [Neratinib] (max concentration tested 1000 nM) has percent inhibition of viability of -1.98%

Data point: O=C(O)CC1CC(c2ccccc2)=NO1 (configuration not stated) [VGX-1027] (max concentration tested 10000 nM) ; percent inhibition of viability = 2.82%

For CN(C)c1nc(N(C)C)nc(N(C)C)n1 [Altretamine] (max concentration tested 10000 nM) the molecule record lists percent inhibition of viability as -0.13%

Value of percent inhibition of viability reported for the molecule CCc1c2c(nc3ccc(OC(=O)N4CCC(N5CCCCC5)CC4)cc13)-c1cc3c(c(=O)n1C2)COC(=O)[C@]3(O)CC [Irinotecan] (max concentration tested 10000 nM) is 3.4%

Given item CN(c1ccccc1CNc1nc(Nc2ccc3c(c2)CC(=O)N3)ncc1C(F)(F)F)S(C)(=O)=O (max concentration tested 10000 nM) , the value recorded as its percent inhibition of viability is -8.34%

The reported value for CN1CCN(c2cc(C(=O)Nc3ccc4c(c3)-c3c(c(C(N)=O)nn3-c3ccc(F)cc3)CC4)c(Cl)cn2)CC1 [PHA 408] (max concentration tested 10000 nM) in terms of percent inhibition of viability is 11.9%

Just so you know, measured percent inhibition of viability for O=C(c1ccc(F)c(F)c1Nc1ccc(I)cc1F)N1CC(O)([C@@H]2CCCCN2)C1 [Cobimetinib] (max concentration tested 1000 nM) came out at 12.4%

Reported percent inhibition of viability of CCS(=O)(=O)c1cccc(-c2cc(C(=O)NC3CCN(C)CC3)c(C)c3[nH]c4ncc(C)cc4c23)c1 [TAK-901] (max concentration tested 1000 nM) : -3.4%

Per the record, N#CC(c1ccnc(OCc2ccc(CN3CCOCC3)cc2)n1)c1nc2ccccc2s1 (configuration not stated) [Bentamapimod] (max concentration tested 10000 nM) has percent inhibition of viability of -3.2%

Reported percent inhibition of viability for C[C@H]1C[C@@H]2[C@H]([C@@H](O)C[C@@]3(C)[C@H]2CC[C@]3(O)C(=O)CO)[C@@]2(C)C=CC(=O)C=C12 [Methylprednisolone] (max concentration tested 10000 nM) was 52.2%

###

System: NK-92 (IL-2 2.5 ng/mL)
measurement-protocol: percent inhibition of viability; higher = more inhibition
experimental-setup: 72 h; 1 nM
Reported percent inhibition of viability values for the following compounds.
Supply the numeric figure in %, leaving out any unit text.

A selection of reference data follows.
{"compound": "Cc1[nH]c(/C=C2\\C(=O)Nc3ccccc32)c(C)c1CCC(=O)O [Orantinib] (max concentration tested 10000 nM)", "units-symbol": "%", "endpoint-result": -10.9}
{"compound": "COc1cc2c(NC3CCN(C(C)C)CC3)nc(C3CCCCC3)nc2cc1OCCCN1CCCC1 [UNC0638] (max concentration tested 10000 nM)", "units-symbol": "%", "endpoint-result": 5.67}
{"compound": "Cc1sc2c(c1C)C(c1ccc(Cl)cc1)=N[C@@H](CC(=O)Nc1ccc(O)cc1)c1nnc(C)n1-2 [OTX015] (max concentration tested 10000 nM)", "units-symbol": "%", "endpoint-result": -10.2}

Entry under test: Cn1cnc2c(F)c(Nc3ccc(Br)cc3Cl)c(C(=O)NOCCO)cc21 [Selumetinib] (max concentration tested 10000 nM) . Its percent inhibition of viability was 2.8

response.value for NC(=O)c1ccc(I)c([N+](=O)[O-])c1 [Iniparib] (max concentration tested 10000 nM) (field: percent inhibition of viability) = 8.25

Sample FC(F)(F)c1ccc(/C=C/c2nc(COc3ccc(CCCCn4ccnn4)cc3)co2)cc1 [Mubritinib] (max concentration tested 1000 nM) ; percent inhibition of viability observed: -12.6
